METHOD: chemical genetic growth profiling, strain panel (AID 1159580);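 further: tested at 20 µM; growth read once vehicle control cultures reached saturation at 30 °C; 1 = growth at the plate median or of vehicle wells; lower values mean less growth of the strain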
COND: S. cerevisiae deletion strains, growth OD, locus YPL256C, strain CLN2, stronger effect = lower value
Among all 5,500 compounds or so, about 2,000 (36%) were called active. Inconclusive results (about 18%) are left out. Some of the results follow.
RECORDED_METRIC: normalized growth

> print(dat)
                                   molecule  measured.number
1                         Nc1ccc(C(=O)O)cc1             1.02
2  CN(C)c1ccc(O)c2c1C[C@H]1C[C@H]3[C@H](N(C)C)C(=O)C(C(N)=O)=C(O)[C@@]3(O)C(=O)C1=C2O             1.01
3  CC1(C)CC2C1CC[C@]1(CBr)CCC3C(CC(=O)O)C(=O)O[C@@]32C1 (some centres undefined)            0.972
4                          O=C(NCO)c1cccnc1            0.985
